- ASSAY PROCEDURE: chemical genetic growth profiling, strain panel (AID 1159580);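 further: tested at 20 µM; growth read once vehicle control cultures reached saturation at 30 °C; 1 = growth at the plate median or of vehicle wells; lower values mean less growth of the strain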
- SETTINGS: S. cerevisiae deletion strains, growth OD, locus YER015W, strain faa2, hits give low values
The whole screen tested about 5,500 compounds, of which about 2,000 (36%) were called active. Another 18% or so got no clear call; they are omitted. The list shows a part of the results.
Reported normalized growth is given for each of the following compounds.

{"COMPOUND": "CC1(C)CC2C1CC[C@]1(CBr)CCC3C(CC(=O)O)C(=O)O[C@@]32C1 (stereo not given in full)", "normalized growth": "1 (inactive)"}
{"COMPOUND": "CN(C)C(=O)Oc1cccc([N+](C)(C)C)c1", "normalized growth": "1 (inactive)"}
{"COMPOUND": "Cc1cc(=O)[nH]c(=S)[nH]1", "normalized growth": "0.989 (inactive)"}
{"COMPOUND": "CCCc1cc(=O)[nH]c(=S)[nH]1", "normalized growth": "1.01 (inactive)"}
{"COMPOUND": "CC12CCC3C(CC3(C)C)C(C)(CCC1=O)O2 (stereo not given)", "normalized growth": "1 (inactive)"}

---

- ASSAY PROCEDURE: chemical genetic growth profiling, strain panel (AID 1159580);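 further: tested at 20 µM; growth read once vehicle control cultures reached saturation at 30 °C; 1 = growth at the plate median or of vehicle wells; lower values mean less growth of the strain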
- SETTINGS: S. cerevisiae deletion strains, growth OD, locus YBR135W, strain CKS1, hits give low values
Screen size: about 5,500 compounds; about 2,000 (36%) were called active. Inconclusive results (about 18%) are left out. Some of the results follow.
Reported normalized growth is given for each of the following compounds.
OBSERVED PROPERTY: normalized growth

{"LINE NOTATION": "CC(C)(C)c1cc(C(=O)Nc2ccc3c(c2)OCO3)n(Cc2ccc(F)cc2)n1", "MEAS VALUE": 0.979}
{"LINE NOTATION": "Brc1ccc(-c2csc(-c3ccncc3)n2)cc1", "MEAS VALUE": 0.904}
{"LINE NOTATION": "Cc1onc(-c2c(F)cccc2Cl)c1/C(N)=N\\OC(=O)c1ccc(C(C)(C)C)cc1", "MEAS VALUE": 0.985}
{"LINE NOTATION": "Cc1ccc(-c2csc(-c3ccncc3)n2)cc1", "MEAS VALUE": 0.903}
{"LINE NOTATION": "Cc1onc(-c2c(Cl)cccc2Cl)c1C(=O)O/N=C(/N)Cc1ccc(C(C)(C)C)cc1", "MEAS VALUE": 0.988}
{"LINE NOTATION": "O=C(Nc1cccc(Cl)c1)O/N=C1\\CCCc2occc21", "MEAS VALUE": 0.936}

---

- ASSAY PROCEDURE: chemical genetic growth profiling, strain panel (AID 1159580);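 further: tested at 20 µM; growth read once vehicle control cultures reached saturation at 30 °C; 1 = growth at the plate median or of vehicle wells; lower values mean less growth of the strain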
- SETTINGS: S. cerevisiae deletion strains, growth OD, locus YBR231C, strain swc5, hits give low values
The whole screen tested about 5,500 compounds, of which about 2,000 (36%) were called active. Inconclusive results (about 18%) are left out. This is one part of the list.

{"LINE NOTATION": "C[C@H]1c2cccc(O)c2C(O)=C2C(=O)[C@]3(O)C(O)=C(C(N)=O)C(=O)[C@@H](N(C)C)[C@@H]3[C@@H](O)[C@@H]21", "normalized growth": 0.979}
{"LINE NOTATION": "CN(C)[C@@H]1C(=O)C(C(N)=O)=C(O)[C@@]2(O)C(=O)C3=C(O)c4c(O)ccc(Cl)c4[C@@H](O)[C@H]3C[C@@H]12", "normalized growth": 0.991}
{"LINE NOTATION": "C=C1c2cccc(O)c2C(O)=C2C(=O)[C@]3(O)C(O)=C(C(N)=O)C(=O)[C@@H](N(C)C)[C@@H]3[C@@H](O)[C@H]12", "normalized growth": 1.02}
